System: SK-MEL-2 melanoma
Experiment: NCI-60 one-dose screen, 48 h (100 = growth as untreated, 0 = no growth, -100 = all killed)
Conditions: 10 µM
This is part of a sample that, as a whole, favours compounds with a hit. Of some 83,000 tested, about 20% had one in any assay.
In this section we review reported growth values for a set of compounds.
Express the result in % but write the number alone.

Task: Enter growth (test system SK-MEL-2 melanoma) for `CN(CCF)/N=N/c1nc[nH]c1C(N)=O`
Result: -20.9

----------
Tested on: DU-145 prostate
Test: NCI-60 one-dose screen, 48 h (100 = growth as untreated, 0 = no growth, -100 = all killed)
Conditions: 10 µM
Compounds without any hit were thinned out: in the full panel of roughly 83,000, 20% have a hit.
MEASUREMENT_NAME: growth (%)
Express the result in % but write the number alone.

COMPOUND_STRING | growth / %
CC1=C2C(=C[C@@](C)(C=O)[C@@H]2O)C(=O)[C@](C)(O)C12CC2 | 9.15

Task: Recall and state the measured growth for `CC(=O)O[C@@H]1C[C@H]2O[C@@H]3C=C(C)CC[C@]3(C)[C@]1(C)[C@]21CO1` .
Result: 16.8

Task: Recall and state the measured growth for `C/C=C\C(=O)O[C@@H]1CC2O[C@@H]3C=C(C)C(=O)C[C@]3(C)[C@]1(C)[C@]21CO1` .
Result: -15.1

Task: Recall and state the measured growth for `CC1=C[C@H]2O[C@@H]3C[C@H]4OC(=O)/C=C\C=C\[C@H]([C@@H](C)O)OCC/C(C)=C/C(=O)OC[C@@]2(CC1)[C@]4(C)[C@]31CO1` .
Result: -17.5
